test system: Scedosporium prolificans; assay: Antifungal activity in vitro, resazurin growth inhibition: Scedosporium prolificans (IHEM21157); format: cell-based
Where Inf. I: Scedosporium prolificans IHEM21157, pIC50 equals or exceeds 6, the correct label is true; where it does not, the label is false.

Please review the entries below; each comes with its answer.
> print(dat)
                                   compound  class.name
1  Cc1ccc2cc(C3=NCc4c(C)cccc4-n4cccc43)oc2c1 [Compound 140]        true
2  Fc1cccc2cc(C3=NCc4c(Cl)cccc4-n4cccc43)oc12 [Compound 127]        true
3  Cc1nc2cc(C3=NCc4c(Cl)cccc4-n4cccc43)ccc2s1 [Compound 191]        true

## Task State whether the measured Inf. I: Scedosporium prolificans IHEM21157, pIC50 reaches 6, counting equality as reaching it, for COc1cccc2cc(C3=NCc4c(Cl)cccc4-n4cccc43)oc12 [Compound 141]
## Result false

## Task State whether the measured Inf. I: Scedosporium prolificans IHEM21157, pIC50 reaches 6, counting equality as reaching it, for Cc1cccc2c1CN=C(c1ccc3ncsc3c1)c1cccn1-2 [Compound 183]
## Result false
